List of protein stability index values.
B1: OAS1 (parent)
chain: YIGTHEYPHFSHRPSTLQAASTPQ

Variants of: B1
Experiment: protein stability index of a GFP-peptide fusion (GPS, HEK-293T) (PSI 1-6); higher = more stable;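 further: lentivirally expressed fusions sorted by FACS into six bins by GFP to DsRed ratio, PSI derived from sequencing read proportions per bin multiplied by bin number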
Details: c terminus: a fixed tail appended
Observation Type: protein stability index

INSERT INTO assay_data (mutation_notation, measurement) VALUES
  ('Y7T', 2.3),
  ('H12D', 2.49),
  ('G3Y', 1.6),
  ('Y1P', 4.32),
  ('S11Y', 3.04),
  ('S15C', 1.61),
  ('Q24D', 2.06),
  ('P23W', 1.97),
  ('P23C', 1.88),
  ('I2H', 1.44),
  ('A20R', 1.82),
  ('Y1H', 3.64),
  ('S21R', 2),
  ('A20K', 2.17),
  ('I2G', 3.15),
  ('P8M', 1.91),
  ('F10C', 2.24),
  ('Y1E', 4.08),
  ('S11D', 2.64),
  ('Q24G', 2.2),
  ('S21D', 1.89),
  ('H5Q', 2.38),
  ('R13L', 1.66),
  ('S15K', 1.82),
  ('F10Q', 2.41),
  ('P14A', 1.81),
  ('H5P', 2.45),
  ('E6S', 1.79),
  ('Y1F', 1.49),
  ('T16P', 2.14),
  ('I2L', 2.73),
  ('P14K', 2.13),
  ('Y7M', 2.37),
  ('P14N', 2.1),
  ('A20Y', 1.89),
  ('A19Y', 2.42),
  ('P23S', 2.27),
  ('Q24R', 1.86),
  ('T4H', 1.95),
  ('T16V', 1.73),
  ('Y7H', 2.18),
  ('P23E', 2.37),
  ('E6A', 2),
  ('S21E', 2.24),
  ('T4L', 1.81),
  ('T16M', 1.42),
  ('T16H', 2.02),
  ('S11Q', 2.71),
  ('S11T', 1.76),
  ('T4C', 2.12),
  ('A19M', 2.15),
  ('T22C', 1.62),
  ('S15R', 1.96),
  ('L17C', 2.14),
  ('L17W', 2.01),
  ('I2R', 3.68),
  ('Y1G', 4.34),
  ('P14D', 2.1);
